assay-explanation: method code SF-AS, from DOI: 10.1002/ardp.19853180604, PMID: 4026543
stated-conditions: pH 7.4
Catalogue of logD readings, one per entry.
attribute-measured: logD

> print(dat)
                                        mol  quantitative.readout
1  Cc1nc2ccccc2c(=O)n1N=C1SCC(=O)N1c1ccc(F)cc1                 -1.36
2  Cc1ccc(N2C(=O)CSC2=Nn2c(C)nc3ccccc3c2=O)cc1                 -1.12
3  COc1ccc(N2C(=O)CSC2=Nn2c(C)nc3ccccc3c2=O)cc1                 -1.23
